assayTarget: Histone deacetylase 5 (Homo sapiens)
Sequence (Q9UQL6 whole entry): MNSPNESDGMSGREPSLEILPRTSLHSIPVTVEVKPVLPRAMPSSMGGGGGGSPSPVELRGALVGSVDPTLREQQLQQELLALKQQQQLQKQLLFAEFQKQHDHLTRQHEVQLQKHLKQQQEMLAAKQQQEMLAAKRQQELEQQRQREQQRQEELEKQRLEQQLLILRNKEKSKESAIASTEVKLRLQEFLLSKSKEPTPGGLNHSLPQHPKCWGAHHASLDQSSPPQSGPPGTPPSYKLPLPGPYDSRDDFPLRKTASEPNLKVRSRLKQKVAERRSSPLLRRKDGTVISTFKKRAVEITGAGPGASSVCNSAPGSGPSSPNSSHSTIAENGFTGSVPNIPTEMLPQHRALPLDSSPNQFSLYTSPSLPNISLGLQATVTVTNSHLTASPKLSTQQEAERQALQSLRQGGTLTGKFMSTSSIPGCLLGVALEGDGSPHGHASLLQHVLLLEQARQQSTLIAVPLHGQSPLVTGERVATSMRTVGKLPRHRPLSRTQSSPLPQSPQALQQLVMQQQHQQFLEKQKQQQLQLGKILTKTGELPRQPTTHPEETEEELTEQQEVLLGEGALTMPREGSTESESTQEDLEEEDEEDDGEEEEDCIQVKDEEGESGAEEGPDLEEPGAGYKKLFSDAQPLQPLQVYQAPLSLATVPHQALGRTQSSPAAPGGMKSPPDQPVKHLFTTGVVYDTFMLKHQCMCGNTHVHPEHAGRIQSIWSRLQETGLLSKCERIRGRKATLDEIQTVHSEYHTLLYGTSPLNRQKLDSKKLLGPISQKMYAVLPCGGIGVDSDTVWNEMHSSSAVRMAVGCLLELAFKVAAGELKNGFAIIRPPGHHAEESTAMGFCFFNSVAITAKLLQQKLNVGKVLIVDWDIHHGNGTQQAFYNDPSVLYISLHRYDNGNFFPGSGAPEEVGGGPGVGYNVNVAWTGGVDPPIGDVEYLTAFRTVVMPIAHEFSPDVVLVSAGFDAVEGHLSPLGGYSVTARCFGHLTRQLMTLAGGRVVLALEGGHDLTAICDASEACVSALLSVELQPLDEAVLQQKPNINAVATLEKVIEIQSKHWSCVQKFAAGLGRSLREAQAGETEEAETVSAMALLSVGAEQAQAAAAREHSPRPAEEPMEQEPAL
measurementProtocol: Inhibition of recombinant full length N-terminal GST-tagged human HDAC5 expressed in baculovirus infected Sf9 cells using Ac-peptide-AMC as substrate after 1 hr by fluorescence assay
pIC50: −log10 of the molar value.
measure: pIC50

[[record]]
cpdsmiles = "Cc1ccc(CN2CCC(c3noc(CN(C)c4ncc(C(=O)NO)cn4)n3)CC2)cc1"
measure = "pIC50"
readoutvalue = 6.27


====

assayTarget: UniProt:Q13547
Sequence (Q13547 whole entry): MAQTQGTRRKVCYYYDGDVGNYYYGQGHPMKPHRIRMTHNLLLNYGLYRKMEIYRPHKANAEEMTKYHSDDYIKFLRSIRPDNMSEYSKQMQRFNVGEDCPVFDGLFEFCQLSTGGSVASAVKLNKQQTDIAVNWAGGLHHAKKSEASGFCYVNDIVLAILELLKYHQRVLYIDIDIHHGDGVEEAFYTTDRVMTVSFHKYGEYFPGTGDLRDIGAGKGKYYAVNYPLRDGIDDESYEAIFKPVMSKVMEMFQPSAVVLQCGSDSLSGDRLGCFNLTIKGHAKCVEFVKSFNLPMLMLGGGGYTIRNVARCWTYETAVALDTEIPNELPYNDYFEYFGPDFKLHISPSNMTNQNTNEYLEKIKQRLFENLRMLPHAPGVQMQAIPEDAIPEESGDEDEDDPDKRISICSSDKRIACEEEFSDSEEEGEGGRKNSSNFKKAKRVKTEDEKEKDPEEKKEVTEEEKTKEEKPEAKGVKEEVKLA
measurementProtocol: Inhibition of recombinant full length HDAC1 (unknown origin) using Ac-peptide-AMC as substrate at 100 nM after 1 hr by fluorescence assay relative to control
# maps each entry to its inhibition
measure: inhibition (%)

[[record]]
cpdsmiles = "O=C(/C=C/c1ccc(OCc2nc(C3CCN(Cc4ccc(Br)cc4)CC3)no2)cc1)NO"
assaytarget = "UniProt:Q13547"
unitstring = "%"
readoutvalue = 6

[[record]]
cpdsmiles = "Cc1ccc(CN2CCC(c3noc(COc4ccc(/C=C/C(=O)NO)cc4)n3)CC2)cc1"
assaytarget = "UniProt:Q13547"
unitstring = "%"
readoutvalue = 32

[[record]]
cpdsmiles = "O=C(/C=C/c1ccc(OCc2nc(C3CCN(Cc4ccccc4[N+](=O)[O-])CC3)no2)cc1)NO"
assaytarget = "UniProt:Q13547"
unitstring = "%"
readoutvalue = 19

[[record]]
cpdsmiles = "O=C(/C=C/c1ccc(OCc2nc(C3CCN(Cc4ccccc4F)CC3)no2)cc1)NO"
assaytarget = "UniProt:Q13547"
unitstring = "%"
readoutvalue = 31


====

Tested on: SK-OV-3
measurementProtocol: Antiproliferative activity against human SKOV3 cells after 72 hrs by MTT assay
Assay type: functional, cell-based
recordedConditions: SK-OV-3, 72 h
measure: IC50 (nM)

[[record]]
cpdsmiles = "Cc1ccc(CN2CCC(c3noc(CN(C)c4ncc(C(=O)NO)cn4)n3)CC2)cc1"
assaytarget = "SK-OV-3"
readoutvalue = 20.5


====

measurementProtocol: Cmax in Sprague-Dawley rat at 5 mg/kg, po measured upto 24 hrs by LC-MS/MS analysis
Assay type: ADME, organism-based
Parameters: dose 5 mg/kg, route oral
recordedConditions: in vivo
measure: Cmax (ng/mL)

[[record]]
cpdsmiles = "Cc1ccc(CN2CCC(c3noc(CN(C)c4ncc(C(=O)NO)cn4)n3)CC2)cc1"
readoutvalue = 241


====

measurementProtocol: Clearance in Sprague-Dawley rat at 5 mg/kg, po measured upto 24 hrs by LC-MS/MS analysis
Format: ADME, organism-based
recordedConditions: in vivo
measure: CL/F (mL/min/kg)

[[record]]
cpdsmiles = "Cc1ccc(CN2CCC(c3noc(CN(C)c4ncc(C(=O)NO)cn4)n3)CC2)cc1"
readoutvalue = 372


====

Test system: Raji
measurementProtocol: Antiproliferative activity against human Raji cells after 72 hrs by MTT assay
Type: functional, cell-based
pIC50: −log10 of the molar value.
Values of pIC50 greater than or equal to 7 map to yes; values below map to no.

[[record]]
cpdsmiles = "CN(Cc1nc(C2CCN(Cc3ccccc3)CC2)no1)c1ncc(/C=C/C(=O)NO)cn1"
group = "no"

[[record]]
cpdsmiles = "CN(Cc1nc(C2CCN(Cc3ccc(F)cc3F)CC2)no1)c1ncc(C(=O)NO)cn1"
group = "yes"

[[record]]
cpdsmiles = "CN(Cc1nc(C2CCN(Cc3ccccc3Cl)CC2)no1)c1ncc(C(=O)NO)cn1"
group = "yes"

[[record]]
cpdsmiles = "CN(Cc1nc(C2CCN(Cc3ccccc3)CC2)no1)c1ncc(C(=O)NO)cn1"
group = "yes"

[[record]]
cpdsmiles = "Cc1ccc(CN2CCC(c3noc(CN(C)c4ncc(/C=C/C(=O)NO)cn4)n3)CC2)cc1"
group = "no"


====

measurementProtocol: Half life in Sprague-Dawley rat at 5 mg/kg, iv measured upto 24 hrs by LC-MS/MS analysis
Type: ADME, organism-based
recordedConditions: in vivo
measure: half-life (min)

[[record]]
cpdsmiles = "Cc1ccc(CN2CCC(c3noc(CN(C)c4ncc(C(=O)NO)cn4)n3)CC2)cc1"
readoutvalue = 23.4


====

measurementProtocol: AUC ( 0 to t) in Sprague-Dawley rat at 5 mg/kg, iv measured upto 24 hrs by LC-MS/MS analysis
Format: ADME, organism-based
Parameters: dose 5 mg/kg, time < 24 hr, route intravenous
recordedConditions: in vivo
measure: AUC(0-t) at 24 h (ng·h/mL)

[[record]]
cpdsmiles = "Cc1ccc(CN2CCC(c3noc(CN(C)c4ncc(C(=O)NO)cn4)n3)CC2)cc1"
unitstring = "ng·h/mL"
readoutvalue = 433


====

assayTarget: Histone deacetylase 11 (Homo sapiens)
Sequence (Q96DB2 whole entry): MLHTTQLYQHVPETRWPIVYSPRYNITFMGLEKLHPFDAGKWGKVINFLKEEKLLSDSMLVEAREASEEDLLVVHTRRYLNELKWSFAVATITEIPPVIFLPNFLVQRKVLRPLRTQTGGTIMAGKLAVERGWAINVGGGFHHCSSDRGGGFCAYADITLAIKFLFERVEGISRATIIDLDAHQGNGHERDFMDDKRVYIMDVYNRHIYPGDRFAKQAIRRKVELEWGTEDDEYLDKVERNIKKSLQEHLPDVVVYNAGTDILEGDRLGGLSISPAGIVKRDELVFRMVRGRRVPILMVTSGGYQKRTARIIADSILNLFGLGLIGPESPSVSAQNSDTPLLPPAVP
measurementProtocol: Inhibition of recombinant full length human HDAC11 expressed in baculovirus infected Sf9 cells using Ac-peptide-AMC as substrate after 1 hr by fluorescence assay
pIC50: −log10 of the molar value.
measure: pIC50

[[record]]
cpdsmiles = "Cc1ccc(CN2CCC(c3noc(CN(C)c4ncc(C(=O)NO)cn4)n3)CC2)cc1"
measure = "pIC50"
readoutvalue = "< 5.00"


====

assayTarget: Histone deacetylase 8 (Homo sapiens)
Sequence (Q9BY41 whole entry): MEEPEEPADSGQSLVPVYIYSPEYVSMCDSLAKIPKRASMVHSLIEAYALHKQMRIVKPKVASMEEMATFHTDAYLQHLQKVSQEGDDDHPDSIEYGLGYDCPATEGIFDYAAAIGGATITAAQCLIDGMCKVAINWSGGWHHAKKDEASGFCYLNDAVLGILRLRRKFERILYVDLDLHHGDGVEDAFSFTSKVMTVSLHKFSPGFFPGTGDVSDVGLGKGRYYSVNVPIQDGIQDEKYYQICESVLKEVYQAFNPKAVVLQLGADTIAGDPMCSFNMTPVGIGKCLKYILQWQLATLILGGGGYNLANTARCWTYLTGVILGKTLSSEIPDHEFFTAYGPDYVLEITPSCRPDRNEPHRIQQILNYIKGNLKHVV
measurementProtocol: Inhibition of recombinant full length C-terminal His-tagged human HDAC8 expressed in baculovirus infected in Sf9 cells using Ac-peptide-AMC as substrate after 1 hr by fluorescence assay
pIC50: −log10 of the molar value.
measure: pIC50

[[record]]
cpdsmiles = "Cc1ccc(CN2CCC(c3noc(CN(C)c4ncc(C(=O)NO)cn4)n3)CC2)cc1"
measure = "pIC50"
readoutvalue = 6.59


====

assayTarget: Histone deacetylase 9 (Homo sapiens)
Sequence (Q9UKV0 whole entry, the tested form may be a part): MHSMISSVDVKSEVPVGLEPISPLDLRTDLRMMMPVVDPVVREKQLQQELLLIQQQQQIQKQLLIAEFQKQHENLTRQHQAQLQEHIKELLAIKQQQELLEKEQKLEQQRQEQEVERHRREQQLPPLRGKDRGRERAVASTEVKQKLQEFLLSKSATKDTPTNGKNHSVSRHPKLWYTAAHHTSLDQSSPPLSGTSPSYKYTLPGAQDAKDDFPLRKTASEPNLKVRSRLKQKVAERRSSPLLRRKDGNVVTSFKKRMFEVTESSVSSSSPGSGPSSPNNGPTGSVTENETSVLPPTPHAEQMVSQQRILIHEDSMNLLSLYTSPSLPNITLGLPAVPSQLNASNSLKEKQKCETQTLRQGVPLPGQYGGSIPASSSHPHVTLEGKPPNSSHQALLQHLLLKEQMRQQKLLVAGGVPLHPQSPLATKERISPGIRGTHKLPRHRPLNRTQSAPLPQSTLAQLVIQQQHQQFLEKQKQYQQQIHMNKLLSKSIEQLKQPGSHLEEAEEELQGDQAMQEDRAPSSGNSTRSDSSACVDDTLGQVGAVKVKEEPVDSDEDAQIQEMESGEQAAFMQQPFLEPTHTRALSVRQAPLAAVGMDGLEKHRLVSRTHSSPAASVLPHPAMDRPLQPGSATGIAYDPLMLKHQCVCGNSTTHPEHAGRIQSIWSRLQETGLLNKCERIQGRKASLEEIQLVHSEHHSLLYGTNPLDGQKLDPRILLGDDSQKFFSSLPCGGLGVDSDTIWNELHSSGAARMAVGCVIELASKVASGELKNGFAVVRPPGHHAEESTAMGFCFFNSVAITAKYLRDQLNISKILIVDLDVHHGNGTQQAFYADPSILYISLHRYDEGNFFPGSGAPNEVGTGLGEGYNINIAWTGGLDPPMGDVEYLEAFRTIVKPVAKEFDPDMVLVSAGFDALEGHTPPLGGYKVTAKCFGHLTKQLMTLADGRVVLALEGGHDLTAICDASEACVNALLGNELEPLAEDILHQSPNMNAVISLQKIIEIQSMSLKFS
measurementProtocol: Inhibition of recombinant C-terminal His-tagged human HDAC9 (604 to 1066 residues) expressed in baculovirus infected Sf9 cells using Ac-peptide-AMC as substrate after 1 hr by fluorescence assay
measure: IC50 (nM)

[[record]]
cpdsmiles = "Cc1ccc(CN2CCC(c3noc(CN(C)c4ncc(C(=O)NO)cn4)n3)CC2)cc1"
assaytarget = "Histone deacetylase 9 (Homo sapiens)"
readoutvalue = 441


====

measurementProtocol: Half life in Sprague-Dawley rat plasma at 5 mg/kg, po measured upto 24 hrs by LC-MS/MS analysis
Format: ADME, organism-based
measure: half-life (h)

[[record]]
cpdsmiles = "Cc1ccc(CN2CCC(c3noc(CN(C)c4ncc(C(=O)NO)cn4)n3)CC2)cc1"
readoutvalue = 1.01


====

# maps each entry to its inhibition
assayTarget: Protein deacetylase HDAC6 (Homo sapiens)
Sequence (whole entry): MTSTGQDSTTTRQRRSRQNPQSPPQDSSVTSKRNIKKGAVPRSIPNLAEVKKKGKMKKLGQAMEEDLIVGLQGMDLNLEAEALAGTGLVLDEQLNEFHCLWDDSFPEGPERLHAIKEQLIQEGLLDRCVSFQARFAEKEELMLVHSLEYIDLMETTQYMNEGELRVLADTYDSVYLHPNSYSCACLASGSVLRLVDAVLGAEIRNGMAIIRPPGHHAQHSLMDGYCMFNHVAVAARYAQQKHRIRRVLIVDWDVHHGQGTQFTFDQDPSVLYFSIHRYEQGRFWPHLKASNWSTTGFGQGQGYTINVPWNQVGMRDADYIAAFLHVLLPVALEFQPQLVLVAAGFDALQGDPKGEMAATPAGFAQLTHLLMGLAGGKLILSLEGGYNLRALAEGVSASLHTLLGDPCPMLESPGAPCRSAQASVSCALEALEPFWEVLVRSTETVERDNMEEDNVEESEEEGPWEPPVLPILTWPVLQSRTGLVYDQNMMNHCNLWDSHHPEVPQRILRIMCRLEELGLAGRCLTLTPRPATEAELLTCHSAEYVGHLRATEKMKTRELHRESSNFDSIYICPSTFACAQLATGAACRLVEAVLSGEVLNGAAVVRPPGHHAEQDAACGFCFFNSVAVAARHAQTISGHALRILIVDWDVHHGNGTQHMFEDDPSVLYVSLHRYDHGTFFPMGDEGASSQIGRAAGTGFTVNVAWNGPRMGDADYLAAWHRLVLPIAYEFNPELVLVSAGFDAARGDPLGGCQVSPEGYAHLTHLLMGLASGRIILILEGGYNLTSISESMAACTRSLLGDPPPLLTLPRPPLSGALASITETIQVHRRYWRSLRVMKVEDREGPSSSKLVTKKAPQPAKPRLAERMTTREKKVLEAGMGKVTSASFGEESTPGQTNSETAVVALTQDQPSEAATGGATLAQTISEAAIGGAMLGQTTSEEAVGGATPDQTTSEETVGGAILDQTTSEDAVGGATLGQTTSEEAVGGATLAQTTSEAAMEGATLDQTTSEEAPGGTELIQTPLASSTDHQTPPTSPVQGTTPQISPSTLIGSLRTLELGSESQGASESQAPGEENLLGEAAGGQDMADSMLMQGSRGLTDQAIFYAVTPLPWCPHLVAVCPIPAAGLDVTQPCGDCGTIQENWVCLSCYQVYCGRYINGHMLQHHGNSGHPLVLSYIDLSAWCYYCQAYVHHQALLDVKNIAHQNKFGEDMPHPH
measurementProtocol: Inhibition of recombinant full length HDAC6 (unknown origin) using Ac-peptide-AMC as substrate at 100 nM after 1 hr by fluorescence assay relative to control
measure: inhibition (%)

[[record]]
cpdsmiles = "CN(Cc1nc(C2CCN(Cc3ccccc3)CC2)no1)c1ncc(C(=O)NO)cn1"
assaytarget = "Protein deacetylase HDAC6 (Homo sapiens)"
readoutvalue = 63

[[record]]
cpdsmiles = "O=C(Cc1ccc(OCc2nc(C3CCN(Cc4ccccc4)CC3)no2)cc1)NO"
assaytarget = "Protein deacetylase HDAC6 (Homo sapiens)"
readoutvalue = 35

[[record]]
cpdsmiles = "O=C(/C=C/c1ccc(OCc2nc(C3CCN(Cc4ccccc4Cl)CC3)no2)cc1)NO"
assaytarget = "Protein deacetylase HDAC6 (Homo sapiens)"
readoutvalue = 59

[[record]]
cpdsmiles = "N#Cc1ccccc1CN1CCC(c2noc(COc3ccc(/C=C/C(=O)NO)cc3)n2)CC1"
assaytarget = "Protein deacetylase HDAC6 (Homo sapiens)"
readoutvalue = 65

[[record]]
cpdsmiles = "O=C(/C=C/c1ccc(OCc2nc(C3CCN(Cc4ccc(F)cc4)CC3)no2)cc1)NO"
assaytarget = "Protein deacetylase HDAC6 (Homo sapiens)"
readoutvalue = 75

[[record]]
cpdsmiles = "CN(Cc1nc(C2CCN(Cc3ccccc3)CC2)no1)c1ncc(/C=C/C(=O)NO)cn1"
assaytarget = "Protein deacetylase HDAC6 (Homo sapiens)"
readoutvalue = 55

[[record]]
cpdsmiles = "O=C(/C=C/c1ccc(OCc2nc(C3CCN(Cc4ccc(F)c(F)c4)CC3)no2)cc1)NO"
assaytarget = "Protein deacetylase HDAC6 (Homo sapiens)"
readoutvalue = 60

[[record]]
cpdsmiles = "Cc1ccccc1CN1CCC(c2noc(COc3ccc(/C=C/C(=O)NO)cc3)n2)CC1"
assaytarget = "Protein deacetylase HDAC6 (Homo sapiens)"
readoutvalue = 68

[[record]]
cpdsmiles = "CN(Cc1nc(C2CCN(Cc3ccccc3Cl)CC2)no1)c1ncc(C(=O)NO)cn1"
assaytarget = "Protein deacetylase HDAC6 (Homo sapiens)"
readoutvalue = 55

